System: 186277-243-T-J2-PDC complex spheroid viability
Test: Anticancer human tumor 186277-243-T-J2-PDC patient-derived colon adenocarcinoma cell line growth inhibition
Settings: second compound 0.316 µM; first compound 3.16 µM; hits give low values
Readout name: viability, T/C (%)
Answers are plain numbers, in %.

Worked examples, 3 compounds total:
Compound	viability, T/C [%]
CC(C)c1c(-c2ccccc2)nc2c(C#N)c[nH]n2c1=O + NC1CC1c1ccc(-c2cccc(O)c2)cc1	85.9
CC1(C)CCC(CN2CCN(c3ccc(C(=O)NS(=O)(=O)c4ccc(NCC5CCOCC5)c([N+](=O)[O-])c4)c(Oc4cnc5[nH]ccc5c4)c3)CC2)=C(c2ccc(Cl)cc2)C1 + NC1CC1c1ccc(-c2cccc(O)c2)cc1	29.9
CC1(C)CCC(CN2CCN(c3ccc(C(=O)NS(=O)(=O)c4ccc(NCC5CCOCC5)c([N+](=O)[O-])c4)c(Oc4cnc5[nH]ccc5c4)c3)CC2)=C(c2ccc(Cl)cc2)C1 + NC1CCC(NC2CC2c2ccccc2)CC1	74.9

Hi team, please reply with viability, T/C for each item in this list.
1. O=C(c1cc(Cc2n[nH]c(=O)c3ccccc23)ccc1F)N1CCN(C(=O)C2CC2)CC1 + NC1CC1c1ccc(-c2cccc(O)c2)cc1
2. COc1ccc([C@@H](O)c2cc(-c3ncnc4cc(N5CCOCC5)ccc34)c(F)cc2Cl)nn1 + NC1CCC(NC2CC2c2ccccc2)CC1
3. CC1COCCN1c1cc(C2(S(C)(=N)=O)CC2)nc(-c2ccnc3[nH]ccc23)n1 (stereo not given) + NC1CCC(NC2CC2c2ccccc2)CC1
4. CC(C)c1c(-c2ccccc2)nc2c(C#N)c[nH]n2c1=O + NC1CCC(NC2CC2c2ccccc2)CC1
5. CC1COCCN1c1cc(C2(S(C)(=N)=O)CC2)nc(-c2ccnc3[nH]ccc23)n1 (stereo not given) + NC1CC1c1ccc(-c2cccc(O)c2)cc1
6. COc1ccc([C@@H](O)c2cc(-c3ncnc4cc(N5CCOCC5)ccc34)c(F)cc2Cl)nn1 + NC1CC1c1ccc(-c2cccc(O)c2)cc1
7. O=C(c1cc(Cc2n[nH]c(=O)c3ccccc23)ccc1F)N1CCN(C(=O)C2CC2)CC1 + NC1CCC(NC2CC2c2ccccc2)CC1

121
72.7
11
108
10.5
70.8
127

====

System: 186277-243-T-J2-PDC complex spheroid viability
Test: Anticancer human tumor 186277-243-T-J2-PDC cell line growth inhibition;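 also: 7 day exposure to compounds; 100% = DMSO vehicle control viability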
Details: second compound 0.316 µM; first compound 0.0949 µM; hits give low values
For each record, write down the corresponding viability, T/C.
Answers are plain numbers, in %.

Worked examples, 10 compounds total:
Compound	Readout name	Recorded measurement
Nc1ncn(C2CC(O)C(CO)S2)c(=O)n1 (stereo unspecified) + NC1CC1c1ccc(-c2cccc(O)c2)cc1	viability, T/C	46
CCc1c2c(nc3ccc(O)cc13)-c1cc3c(c(=O)n1C2)COC(=O)[C@]3(O)CC + NC1CCC(NC2CC2c2ccccc2)CC1	viability, T/C	1.53
Nc1ncn(C2CC(O)C(CO)S2)c(=O)n1 (stereo unspecified) + NC1CCC(NC2CC2c2ccccc2)CC1	viability, T/C	34.9
COc1cc(C2c3cc4c(cc3C(OC3OC5COC(C)OC5C(O)C3O)C3COC(=O)C23)OCO4)cc(OC)c1O (stereo unspecified) + NC1CC1c1ccc(-c2cccc(O)c2)cc1	viability, T/C	118
NS(=O)(=O)OCC1CC(n2ccc3c(NC4CCc5ccccc54)ncnc32)CC1O (stereo unspecified) + NC1CC1c1ccc(-c2cccc(O)c2)cc1	viability, T/C	82.3
Nc1ccn(C2OC(CO)C(O)C2(F)F)c(=O)n1 (stereo unspecified) + NC1CC1c1ccc(-c2cccc(O)c2)cc1	viability, T/C	12.2
COc1cc(C2c3cc4c(cc3C(OC3OC5COC(C)OC5C(O)C3O)C3COC(=O)C23)OCO4)cc(OC)c1O (stereo unspecified) + NC1CCC(NC2CC2c2ccccc2)CC1	viability, T/C	150
O=C(C=Cc1cccc(S(=O)(=O)Nc2ccccc2)c1)NO + NC1CCC(NC2CC2c2ccccc2)CC1	viability, T/C	109
Nc1ccccc1NC(=O)c1ccc(CNC(=O)OCc2cccnc2)cc1 + NC1CCC(NC2CC2c2ccccc2)CC1	viability, T/C	109
NS(=O)(=O)OCC1CC(n2ccc3c(NC4CCc5ccccc54)ncnc32)CC1O (stereo unspecified) + NC1CCC(NC2CC2c2ccccc2)CC1	viability, T/C	97.3

Hi team, please reply with viability, T/C for each item in this list.
1. O=C(C=Cc1cccc(S(=O)(=O)Nc2ccccc2)c1)NO + NC1CC1c1ccc(-c2cccc(O)c2)cc1
2. CCc1c2c(nc3ccc(O)cc13)-c1cc3c(c(=O)n1C2)COC(=O)[C@]3(O)CC + NC1CC1c1ccc(-c2cccc(O)c2)cc1
3. CCN(c1cc(-c2ccc(CN3CCOCC3)cc2)cc(C(=O)NCc2c(C)cc(C)[nH]c2=O)c1C)C1CCOCC1 + NC1CCC(NC2CC2c2ccccc2)CC1
4. CCN(c1cc(-c2ccc(CN3CCOCC3)cc2)cc(C(=O)NCc2c(C)cc(C)[nH]c2=O)c1C)C1CCOCC1 + NC1CC1c1ccc(-c2cccc(O)c2)cc1
5. Nc1ccccc1NC(=O)c1ccc(CNC(=O)OCc2cccnc2)cc1 + NC1CC1c1ccc(-c2cccc(O)c2)cc1
6. Nc1ccn(C2OC(CO)C(O)C2(F)F)c(=O)n1 (stereo unspecified) + NC1CCC(NC2CC2c2ccccc2)CC1

[90.8, 0.15, 110, 129, 108, 16.1]

====

Test system: 186277-243-T-J2-PDC complex spheroid viability
Assay: Anticancer human tumor 186277-243-T-J2-PDC cell line growth inhibition;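 also: 7 day exposure to compounds; 100% = DMSO vehicle control viability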
Settings: second compound 3.16 µM; first compound 0.1 µM; hits give low values
Readout name: viability, T/C (%)
Numbers only, in %.

Worked examples, 3 molecules total:
Molecule	viability, T/C, %
COc1cc(Nc2ncc3c(n2)-c2ccc(Cl)cc2C(c2c(F)cccc2OC)=NC3)ccc1C(=O)O + NC1CC1c1ccc(-c2cccc(O)c2)cc1	126
COc1ccc([C@@H](O)c2cc(-c3ncnc4cc(N5CCOCC5)ccc34)c(F)cc2Cl)nn1 + NC1CCC(NC2CC2c2ccccc2)CC1	126
COc1ccc([C@@H](O)c2cc(-c3ncnc4cc(N5CCOCC5)ccc34)c(F)cc2Cl)nn1 + NC1CC1c1ccc(-c2cccc(O)c2)cc1	118

Hi team, please reply with viability, T/C for each item in this list.
1. Cn1ncnc1C1c2n[nH]c(=O)c3cc(F)cc(c23)NC1c1ccc(F)cc1 (stereo unspecified) + NC1CCC(NC2CC2c2ccccc2)CC1
2. Nc1ncn(C2CC(O)C(CO)O2)c(=O)n1 (stereo unspecified) + NC1CCC(NC2CC2c2ccccc2)CC1
3. CC[C@@]1(O)C(=O)OCc2c1cc1n(c2=O)Cc2cc3c(CN(C)C)c(O)ccc3nc2-1 + NC1CCC(NC2CC2c2ccccc2)CC1

1. 104
2. 137
3. 61.6

====

For each record, write down the corresponding viability, T/C.
System: 186277-243-T-J2-PDC complex spheroid viability
Assay: Anticancer human tumor 186277-243-T-J2-PDC cell line growth inhibition;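 also: 7 day exposure to compounds; 100% = DMSO vehicle control viability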
Settings: second compound 3.16 µM; first compound 0.000316 µM; hits give low values
Numbers only, in %.

Worked examples, 2 compounds total:
Compound	Test target	viability, T/C (%)
Cn1ncnc1C1c2n[nH]c(=O)c3cc(F)cc(c23)NC1c1ccc(F)cc1 (stereo not drawn) + NC1CC1c1ccc(-c2cccc(O)c2)cc1	186277-243-T-J2-PDC complex spheroid viability	110
CC(C)CC(NC(=O)C(Cc1ccccc1)NC(=O)c1cnccn1)B(O)O (stereo not drawn) + NC1CC1c1ccc(-c2cccc(O)c2)cc1	186277-243-T-J2-PDC complex spheroid viability	101

Hi team, please reply with viability, T/C for each item in this list.
1. CC(C)CC(NC(=O)CNC(=O)c1cc(Cl)ccc1Cl)B1OC(=O)CC(CC(=O)O)(C(=O)O)O1 (stereo not drawn) + NC1CCC(NC2CC2c2ccccc2)CC1
2. CC(C)CC(NC(=O)CNC(=O)c1cc(Cl)ccc1Cl)B1OC(=O)CC(CC(=O)O)(C(=O)O)O1 (stereo not drawn) + NC1CC1c1ccc(-c2cccc(O)c2)cc1
3. CC(C)CC(NC(=O)C(Cc1ccccc1)NC(=O)c1cnccn1)B(O)O (stereo not drawn) + NC1CCC(NC2CC2c2ccccc2)CC1
4. CC[C@@]1(O)C(=O)OCc2c1cc1n(c2=O)Cc2cc3c(CN(C)C)c(O)ccc3nc2-1 + NC1CCC(NC2CC2c2ccccc2)CC1
5. Cn1ncnc1C1c2n[nH]c(=O)c3cc(F)cc(c23)NC1c1ccc(F)cc1 (stereo not drawn) + NC1CCC(NC2CC2c2ccccc2)CC1
6. CC[C@@]1(O)C(=O)OCc2c1cc1n(c2=O)Cc2cc3c(CN(C)C)c(O)ccc3nc2-1 + NC1CC1c1ccc(-c2cccc(O)c2)cc1

1: 112; 2: 111; 3: 107; 4: 107; 5: 109; 6: 101
